# Assay Explanation: Half life in dog at 1 mg/kg, iv after 24 hrs
# Assay type: ADME, organism-based, Canis lupus familiaris
# Design: dose 1 mg/kg, route intravenous
# Recorded Conditions: in vivo
Measurement Name: half-life

[
  {
    "Smiles Notation": "COC(=O)N[C@@H](C(=O)N1CCC[C@H]1c1ncc(-c2ccc(-c3ccc(-c4cnc([C@@H]5CCCN5C(=O)[C@H]5CCCO5)[nH]4)cc3)cc2)[nH]1)c1ccccc1",
    "half-life": "> 10 h"
  }
]

Okay, now this compound:
So for O=C([C@@H](c1ccccc1)N1CCCCC1)N1CCC[C@H]1c1ncc(-c2ccc(-c3ccc(-c4cnc([C@@H]5CCCN5C(=O)[C@@H](c5ccccc5)N5CCCCC5)[nH]4)cc3)cc2)[nH]1 , the logged half-life turned out to be > 12 h
